Where do these numbers come from? They come from patent US20190315854A1.

What Relative Affinity was measured for each of the following?
- Tested Target: T1, sIL-6R (soluble IL-6 receptor; SBH Sciences) (human, UniProt P08887 20-365)
- T1 construct: also called human IL-6R
- T1 sequence: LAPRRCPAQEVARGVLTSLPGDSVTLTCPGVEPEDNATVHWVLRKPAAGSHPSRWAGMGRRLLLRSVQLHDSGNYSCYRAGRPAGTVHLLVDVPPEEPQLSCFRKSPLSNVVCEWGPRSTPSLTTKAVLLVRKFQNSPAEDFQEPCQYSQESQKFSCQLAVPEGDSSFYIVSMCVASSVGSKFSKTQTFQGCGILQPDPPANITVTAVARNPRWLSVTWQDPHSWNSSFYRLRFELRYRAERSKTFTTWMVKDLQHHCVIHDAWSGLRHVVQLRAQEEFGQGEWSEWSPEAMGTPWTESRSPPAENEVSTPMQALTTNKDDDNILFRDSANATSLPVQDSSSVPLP
- Test Name: SPR (BIAcore 3000), antibody on chip, sIL-6R analyte, 25 C

Data point: 30# (antibody, human IgG1, kappa, V domains shown, also called Sample # 30) VH: QVQLQESGPGLVRPSQTLSLTCTVSGYSITSDHAWSWVRQPPGRGLEWIGFISYSGMTTYNPSLKSRVTMLRDTSKNQFSLRLSSVTAADTAVYYCARCLARTTAMDYWGQGSLVTVSS VL: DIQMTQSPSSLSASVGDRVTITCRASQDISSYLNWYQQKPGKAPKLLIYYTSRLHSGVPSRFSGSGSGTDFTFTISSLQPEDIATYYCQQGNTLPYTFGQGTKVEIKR ; Relative Affinity = 6.7 fold vs 25 (Tocilizumab)

The binder Tocilizumab (antibody, human IgG1, kappa, V domains shown, also called 25; 25(control)) VH: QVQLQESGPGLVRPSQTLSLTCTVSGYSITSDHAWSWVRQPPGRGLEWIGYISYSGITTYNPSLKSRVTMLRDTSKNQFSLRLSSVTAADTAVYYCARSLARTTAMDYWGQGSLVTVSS VL: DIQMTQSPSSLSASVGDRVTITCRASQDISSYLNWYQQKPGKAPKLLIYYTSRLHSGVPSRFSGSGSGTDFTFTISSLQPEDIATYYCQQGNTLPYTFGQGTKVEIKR showed Relative Affinity equal to 1 fold vs 25 (Tocilizumab)

The binder listed as 15# (antibody, human IgG1, kappa, V domains shown, also called Sample # 15) VH: QVQLQESGPGLVRPSQTLSLTCTVSGYSITSDHAWSWVRQPPGRGLEWIGFISYSGITTYNPSLKSRVTMLRDTSKNQFSLRLSSVTAADTAVYYCARCLARITAMDYWGQGSLVTVSS VL: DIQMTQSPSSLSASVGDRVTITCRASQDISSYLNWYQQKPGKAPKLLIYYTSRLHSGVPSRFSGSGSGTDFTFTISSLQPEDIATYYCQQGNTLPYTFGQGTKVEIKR shows Relative Affinity equal to 8.6 fold vs 25 (Tocilizumab)

Consider 3# (antibody, human IgG1, kappa, V domains shown, also called Sample # 3) VH: QVQLQESGPGLVRPSQTLSLTCTVSGYSITSDHAWSWVRQPPGRGLEWIGYISYSGITTYNPSLKSRVTMLRDTSKNQFSLRLSSVTAADTAVYYCARSLARATAMDYWGQGSLVTVSS VL: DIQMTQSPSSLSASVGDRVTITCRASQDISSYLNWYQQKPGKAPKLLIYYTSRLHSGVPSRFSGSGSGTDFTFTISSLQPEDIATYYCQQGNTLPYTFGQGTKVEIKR . Its measured Relative Affinity is 3.9 fold vs 25 (Tocilizumab)

Relative Affinity reading for 9# (antibody, human IgG1, kappa, V domains shown, also called Sample # 9) VH: QVQLQESGPGLVRPSQTLSLTCTVSGYSITSDHAWSWVRQPPGRGLEWIGYISYSGIITYNASLKSRVTMLRDTSKNQFSLRLSSVTAADTAVYYCARCLARTTAMDYWGQGSLVTVSS VL: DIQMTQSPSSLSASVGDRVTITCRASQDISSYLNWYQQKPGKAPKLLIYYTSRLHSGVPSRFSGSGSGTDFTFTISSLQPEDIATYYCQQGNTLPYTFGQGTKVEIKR : 5.3 fold vs 25 (Tocilizumab)

Lab note: 31# (antibody, human IgG1, kappa, V domains shown, also called Sample # 31) VH: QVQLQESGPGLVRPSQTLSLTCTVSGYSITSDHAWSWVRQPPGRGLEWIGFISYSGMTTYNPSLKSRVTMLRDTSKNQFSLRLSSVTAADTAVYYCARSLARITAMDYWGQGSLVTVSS VL: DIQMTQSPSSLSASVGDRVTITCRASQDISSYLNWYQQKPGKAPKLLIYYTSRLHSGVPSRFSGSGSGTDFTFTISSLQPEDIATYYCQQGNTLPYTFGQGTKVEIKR gave Relative Affinity of 11 fold vs 25 (Tocilizumab)
